Assignment: determine reported inhibition for the given compounds.
target: Myeloperoxidase (Homo sapiens) (UniProt P05164); experiment: Inhibition of human MPO; design: concentration or dose not given beside the values; settings: concentration not given here
// units = %; emit number, no label

Let me know recorded inhibition for COc1cc(/C=N/NC(=O)c2ccncc2)ccc1O [FTIVAZIDE] , thanks.
82

Let me know recorded inhibition for COc1cc(/C=N/Nc2ccc(F)cc2)ccc1O , thanks.
82

Let me know recorded inhibition for CN(C)c1ccc(/C=N/NC(=O)c2ccncc2)cc1 , thanks.
100

Let me know recorded inhibition for CN(C)c1ccc(/C=N/Nc2ccc(F)cc2)cc1 , thanks.
100

Let me know recorded inhibition for NNc1cccc2ccccc12 , thanks.
61

Let me know recorded inhibition for COc1ccc(/C=N/Nc2nncc3ccccc23)cc1O , thanks.
91

Let me know recorded inhibition for COc1ccc(/C=N/Nc2ccc(F)cc2)cc1O , thanks.
91

Let me know recorded inhibition for Cc1ccc(NN)cc1 , thanks.
61

Let me know recorded inhibition for COc1cc(/C=N/Nc2nncc3ccccc23)ccc1O , thanks.
82

Let me know recorded inhibition for COc1ccc(/C=N/NC(=O)c2ccncc2)cc1O , thanks.
91

Let me know recorded inhibition for CN(C)c1ccc(/C=N/Nc2nncc3ccccc23)cc1 , thanks.
100

Let me know recorded inhibition for NNc1ccc(F)cc1 , thanks.
61

Let me know recorded inhibition for NNc1nncc2ccccc12 [HYDRALAZINE] , thanks.
61

Let me know recorded inhibition for NNC(=O)c1ccncc1 [ISONIAZID] , thanks.
61

* * *

biological target: Myeloperoxidase (Homo sapiens, UniProt P05164); test: Inhibition of human MPO
Quantity measured: IC50 (µM)
// units = µM; emit number, no label

Let me know recorded IC50 for NNC(=O)c1ccncc1 , thanks.
4.7

Let me know recorded IC50 for CN(C)c1ccc(/C=N/NC(=O)c2ccncc2)cc1 , thanks.
1.62

Let me know recorded IC50 for COc1cc(/C=N/Nc2nncc3ccccc23)ccc1O , thanks.
0.34

Let me know recorded IC50 for OC/C=N/Nc1nncc2ccccc12 , thanks.
0.11

Let me know recorded IC50 for COc1cc(/C=N/NC(=O)c2ccncc2)ccc1O [FTIVAZIDE] , thanks.
0.46

Let me know recorded IC50 for COc1cc(/C=N/Nc2ccc(F)cc2)ccc1O , thanks.
1.2

Let me know recorded IC50 for COc1ccc(/C=N/Nc2nncc3ccccc23)cc1O , thanks.
0.15

* * *

target: Myeloperoxidase (Homo sapiens) (UniProt P05164); assay: Inhibition of human MPO assessed as residual activity in absence of […]; design: concentration or dose not given beside the values
Assignment: determine reported Activity for the given molecules.
// units = %; emit number, no label

Let me know recorded Activity for COc1ccc(/C=N/Nc2nncc3ccccc23)cc1O , thanks.
93

Let me know recorded Activity for NNC(=O)c1ccncc1 [ISONIAZID] , thanks.
98

Let me know recorded Activity for OC/C=N/Nc1ccc(F)cc1 , thanks.
107

Let me know recorded Activity for CN(C)c1ccc(/C=N/Nc2ccc(F)cc2)cc1 , thanks.
87

Let me know recorded Activity for CN(C)c1ccc(/C=N/Nc2nncc3ccccc23)cc1 , thanks.
93

Let me know recorded Activity for COc1cc(/C=N/Nc2ccc(F)cc2)ccc1O , thanks.
89

Let me know recorded Activity for COc1ccc(/C=N/NC(=O)c2ccncc2)cc1O , thanks.
88

Let me know recorded Activity for COc1cc(/C=N/Nc2nncc3ccccc23)ccc1O , thanks.
87

Let me know recorded Activity for COc1ccc(/C=N/Nc2ccc(F)cc2)cc1O , thanks.
81

Let me know recorded Activity for O=C(N/N=C/CO)c1ccncc1 , thanks.
100

Let me know recorded Activity for COc1cc(/C=N/NC(=O)c2ccncc2)ccc1O [FTIVAZIDE] , thanks.
96

Let me know recorded Activity for NNc1nncc2ccccc12 [HYDRALAZINE] , thanks.
92

Let me know recorded Activity for CN(C)c1ccc(/C=N/NC(=O)c2ccncc2)cc1 , thanks.
91

Let me know recorded Activity for NNc1ccc(F)cc1 , thanks.
103

Let me know recorded Activity for OC/C=N/Nc1nncc2ccccc12 , thanks.
82

* * *

Assignment: determine reported Activity for the given compounds.
Biological target: Myeloperoxidase (Homo sapiens) (UniProt P05164)
Sequence (whole entry): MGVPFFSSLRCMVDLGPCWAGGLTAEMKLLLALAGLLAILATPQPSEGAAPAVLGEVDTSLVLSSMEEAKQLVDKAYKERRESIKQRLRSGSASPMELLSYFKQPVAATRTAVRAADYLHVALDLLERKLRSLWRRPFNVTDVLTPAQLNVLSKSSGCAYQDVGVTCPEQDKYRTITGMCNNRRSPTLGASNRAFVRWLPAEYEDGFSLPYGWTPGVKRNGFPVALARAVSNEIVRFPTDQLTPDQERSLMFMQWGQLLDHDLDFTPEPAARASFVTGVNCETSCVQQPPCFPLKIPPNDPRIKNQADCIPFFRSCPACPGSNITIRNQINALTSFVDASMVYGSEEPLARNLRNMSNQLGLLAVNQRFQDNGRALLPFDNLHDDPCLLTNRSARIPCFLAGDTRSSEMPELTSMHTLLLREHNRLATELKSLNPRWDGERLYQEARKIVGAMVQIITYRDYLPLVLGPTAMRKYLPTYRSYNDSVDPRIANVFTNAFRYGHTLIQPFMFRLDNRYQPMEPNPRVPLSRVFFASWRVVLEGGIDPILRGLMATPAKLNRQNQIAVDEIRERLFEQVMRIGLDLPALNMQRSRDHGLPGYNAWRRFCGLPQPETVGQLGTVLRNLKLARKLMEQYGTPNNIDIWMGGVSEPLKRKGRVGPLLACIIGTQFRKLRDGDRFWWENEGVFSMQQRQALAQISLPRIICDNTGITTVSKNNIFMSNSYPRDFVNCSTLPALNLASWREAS
Test: Inhibition of human MPO assessed as residual activity in presence of H2O2
Set-up: concentration or dose not given beside the values
// units = %; emit number, no label

Let me know recorded Activity for COc1cc(/C=N/Nc2nncc3ccccc23)ccc1O , thanks.
22

Let me know recorded Activity for COc1ccc(/C=N/Nc2nncc3ccccc23)cc1O , thanks.
25

Let me know recorded Activity for CN(C)c1ccc(/C=N/NC(=O)c2ccncc2)cc1 , thanks.
93

Let me know recorded Activity for COc1ccc(/C=N/NC(=O)c2ccncc2)cc1O , thanks.
87

Let me know recorded Activity for O=C(N/N=C/CO)c1ccncc1 , thanks.
94

Let me know recorded Activity for COc1ccc(/C=N/Nc2ccc(F)cc2)cc1O , thanks.
92

Let me know recorded Activity for CN(C)c1ccc(/C=N/Nc2ccc(F)cc2)cc1 , thanks.
84

Let me know recorded Activity for NNc1nncc2ccccc12 [HYDRALAZINE] , thanks.
19

This collection of values is drawn from ChEMBL document CHEMBL3875231.
